meta.source: ChEMBL document CHEMBL1131579

- TARGET OF ASSAY: Nitric oxide synthase 1 (Rattus norvegicus)
- MEASUREMENT PROTOCOL: Inhibition of arginine to citrulline conversion by Neuronal nitric oxide synthase from rat brain
OBSERVABLE: IC50 (µM)
Entry rule: numbers only, all in µM.

Cc1ccc([N+](=O)[O-])c(OCCC[C@H](N)C(=O)O)c1    4
Cc1ccc([N+](=O)[O-])c(NCCC[C@H](N)C(=O)O)c1    2.5

Please turn your attention to the following entry.
Please fill in: IC50 reported for Cc1ccc([N+](=O)[O-])c(NCCCCN)c1 = 2.5

---

- TARGET OF ASSAY: Nitric oxide synthase 1 (Rattus norvegicus, UniProt P29476)
- Sequence (P29476 whole entry): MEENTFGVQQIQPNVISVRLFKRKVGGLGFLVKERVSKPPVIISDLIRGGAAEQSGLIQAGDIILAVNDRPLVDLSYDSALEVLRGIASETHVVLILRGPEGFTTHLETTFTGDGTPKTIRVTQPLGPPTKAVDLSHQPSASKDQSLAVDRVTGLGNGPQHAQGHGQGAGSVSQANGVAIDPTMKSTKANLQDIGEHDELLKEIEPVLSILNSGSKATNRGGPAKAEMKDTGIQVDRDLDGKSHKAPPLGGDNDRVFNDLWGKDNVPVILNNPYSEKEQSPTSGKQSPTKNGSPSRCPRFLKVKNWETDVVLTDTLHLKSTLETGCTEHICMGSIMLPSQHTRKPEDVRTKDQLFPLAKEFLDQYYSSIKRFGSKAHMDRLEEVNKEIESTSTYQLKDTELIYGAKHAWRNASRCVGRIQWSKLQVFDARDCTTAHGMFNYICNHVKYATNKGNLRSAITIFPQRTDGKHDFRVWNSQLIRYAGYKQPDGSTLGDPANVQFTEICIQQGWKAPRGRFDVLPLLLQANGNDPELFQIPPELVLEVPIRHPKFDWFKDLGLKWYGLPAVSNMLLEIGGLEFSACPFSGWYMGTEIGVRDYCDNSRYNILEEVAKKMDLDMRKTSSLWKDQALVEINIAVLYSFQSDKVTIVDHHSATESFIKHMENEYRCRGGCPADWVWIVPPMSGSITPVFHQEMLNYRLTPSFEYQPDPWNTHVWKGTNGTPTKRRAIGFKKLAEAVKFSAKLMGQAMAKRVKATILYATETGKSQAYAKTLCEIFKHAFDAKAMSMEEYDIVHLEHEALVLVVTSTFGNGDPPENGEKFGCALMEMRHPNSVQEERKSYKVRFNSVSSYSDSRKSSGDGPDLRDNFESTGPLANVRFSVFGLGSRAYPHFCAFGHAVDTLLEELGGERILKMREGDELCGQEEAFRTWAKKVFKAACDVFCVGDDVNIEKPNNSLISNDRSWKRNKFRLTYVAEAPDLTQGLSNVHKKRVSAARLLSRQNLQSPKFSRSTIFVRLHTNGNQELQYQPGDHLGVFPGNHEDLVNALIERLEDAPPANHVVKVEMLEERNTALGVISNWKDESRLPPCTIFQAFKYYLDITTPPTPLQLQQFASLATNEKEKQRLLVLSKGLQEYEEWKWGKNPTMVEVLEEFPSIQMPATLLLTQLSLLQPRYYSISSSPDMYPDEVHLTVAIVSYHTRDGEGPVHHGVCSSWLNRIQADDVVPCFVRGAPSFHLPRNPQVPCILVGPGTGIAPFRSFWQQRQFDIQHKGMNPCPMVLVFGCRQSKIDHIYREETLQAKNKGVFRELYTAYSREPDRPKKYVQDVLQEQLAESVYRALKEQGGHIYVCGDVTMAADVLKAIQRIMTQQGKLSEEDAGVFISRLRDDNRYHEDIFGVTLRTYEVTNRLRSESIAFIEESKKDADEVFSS
- MEASUREMENT PROTOCOL: Inhibitory activity against isomeric form of Neuronal nitric oxide synthase measured by citrulline assay
# maps each entry to its IC50
Entry rule: numbers only, all in µM.

Cc1ccc([N+](=O)[O-])c(N)c1    70
N[C@@H](CCCNc1ccc([N+](=O)[O-])cc1[N+](=O)[O-])C(=O)O    100
N[C@@H](CCCNc1c([N+](=O)[O-])cccc1[N+](=O)[O-])C(=O)O    30

Please fill in: IC50 reported for N[C@@H](CCCNc1ccccc1[N+](=O)[O-])C(=O)O = 100

---

# maps each entry to its pIC50
- TARGET OF ASSAY: Nitric oxide synthase 3 (Bos taurus, UniProt P29473)
- Sequence (P29473 whole entry): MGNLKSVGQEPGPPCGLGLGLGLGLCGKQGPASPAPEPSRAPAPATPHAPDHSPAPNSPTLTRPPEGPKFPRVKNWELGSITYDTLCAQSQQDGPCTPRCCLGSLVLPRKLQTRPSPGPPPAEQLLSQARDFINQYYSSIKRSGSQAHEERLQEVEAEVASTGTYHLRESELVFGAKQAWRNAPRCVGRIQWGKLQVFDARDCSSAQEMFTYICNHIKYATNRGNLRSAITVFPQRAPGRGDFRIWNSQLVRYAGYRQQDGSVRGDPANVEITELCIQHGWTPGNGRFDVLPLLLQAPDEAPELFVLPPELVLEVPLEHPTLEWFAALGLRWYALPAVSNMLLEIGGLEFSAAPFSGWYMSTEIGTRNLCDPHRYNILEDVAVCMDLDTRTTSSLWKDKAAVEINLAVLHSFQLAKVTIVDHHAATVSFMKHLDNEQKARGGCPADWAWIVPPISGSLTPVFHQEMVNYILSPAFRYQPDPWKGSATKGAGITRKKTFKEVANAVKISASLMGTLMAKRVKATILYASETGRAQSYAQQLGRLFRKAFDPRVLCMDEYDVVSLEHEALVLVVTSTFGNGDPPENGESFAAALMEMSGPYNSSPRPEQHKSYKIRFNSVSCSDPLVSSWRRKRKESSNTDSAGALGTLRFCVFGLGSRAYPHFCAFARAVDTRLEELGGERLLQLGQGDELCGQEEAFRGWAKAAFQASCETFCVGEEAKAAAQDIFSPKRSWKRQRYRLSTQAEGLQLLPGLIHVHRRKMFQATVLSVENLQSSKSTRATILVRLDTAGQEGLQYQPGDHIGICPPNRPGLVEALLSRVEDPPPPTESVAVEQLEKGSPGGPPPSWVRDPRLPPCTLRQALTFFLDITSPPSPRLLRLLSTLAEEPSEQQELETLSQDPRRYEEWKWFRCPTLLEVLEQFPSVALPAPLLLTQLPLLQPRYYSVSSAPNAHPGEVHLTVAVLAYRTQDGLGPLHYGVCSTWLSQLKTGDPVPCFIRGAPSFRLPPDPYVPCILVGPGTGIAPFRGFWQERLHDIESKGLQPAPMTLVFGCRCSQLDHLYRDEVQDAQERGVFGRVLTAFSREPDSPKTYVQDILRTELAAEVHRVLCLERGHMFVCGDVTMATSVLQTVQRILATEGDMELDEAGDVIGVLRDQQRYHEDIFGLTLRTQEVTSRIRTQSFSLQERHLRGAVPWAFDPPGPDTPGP
- MEASUREMENT PROTOCOL: Inhibitory activity of conversion of radiolabeled arginine to citrulline by isomeric form of nitric oxide synthase Endothelial nitric oxide synthase from cultured bovine aortic endothelial cells
- Format: cell-based, Endothelial cell
Bear in mind: pIC50 is minus log10 of a mol/L concentration; give just that figure.

N[C@@H](CCCNc1c([N+](=O)[O-])cccc1[N+](=O)[O-])C(=O)O    4.22
N[C@@H](CCCNc1ccccc1[N+](=O)[O-])C(=O)O    4.00
Cc1ccc([N+](=O)[O-])c(NCCCCN)c1    4.70
Cc1ccc([N+](=O)[O-])c(NCCC[C@H](N)C(=O)O)c1    5.30
Cc1ccc([N+](=O)[O-])c(NCCC[C@H](N)CO)c1    4.40
Cc1ccc([N+](=O)[O-])c(SCCC[C@H](N)C(=O)O)c1    5.05

Please turn your attention to the following entry.
Please fill in: pIC50 reported for Cc1ccc([N+](=O)[O-])c(OCCC[C@H](N)C(=O)O)c1 = 5.00

---

- TARGET OF ASSAY: Nitric oxide synthase, inducible (Mus musculus)
- Sequence (P29477 whole entry): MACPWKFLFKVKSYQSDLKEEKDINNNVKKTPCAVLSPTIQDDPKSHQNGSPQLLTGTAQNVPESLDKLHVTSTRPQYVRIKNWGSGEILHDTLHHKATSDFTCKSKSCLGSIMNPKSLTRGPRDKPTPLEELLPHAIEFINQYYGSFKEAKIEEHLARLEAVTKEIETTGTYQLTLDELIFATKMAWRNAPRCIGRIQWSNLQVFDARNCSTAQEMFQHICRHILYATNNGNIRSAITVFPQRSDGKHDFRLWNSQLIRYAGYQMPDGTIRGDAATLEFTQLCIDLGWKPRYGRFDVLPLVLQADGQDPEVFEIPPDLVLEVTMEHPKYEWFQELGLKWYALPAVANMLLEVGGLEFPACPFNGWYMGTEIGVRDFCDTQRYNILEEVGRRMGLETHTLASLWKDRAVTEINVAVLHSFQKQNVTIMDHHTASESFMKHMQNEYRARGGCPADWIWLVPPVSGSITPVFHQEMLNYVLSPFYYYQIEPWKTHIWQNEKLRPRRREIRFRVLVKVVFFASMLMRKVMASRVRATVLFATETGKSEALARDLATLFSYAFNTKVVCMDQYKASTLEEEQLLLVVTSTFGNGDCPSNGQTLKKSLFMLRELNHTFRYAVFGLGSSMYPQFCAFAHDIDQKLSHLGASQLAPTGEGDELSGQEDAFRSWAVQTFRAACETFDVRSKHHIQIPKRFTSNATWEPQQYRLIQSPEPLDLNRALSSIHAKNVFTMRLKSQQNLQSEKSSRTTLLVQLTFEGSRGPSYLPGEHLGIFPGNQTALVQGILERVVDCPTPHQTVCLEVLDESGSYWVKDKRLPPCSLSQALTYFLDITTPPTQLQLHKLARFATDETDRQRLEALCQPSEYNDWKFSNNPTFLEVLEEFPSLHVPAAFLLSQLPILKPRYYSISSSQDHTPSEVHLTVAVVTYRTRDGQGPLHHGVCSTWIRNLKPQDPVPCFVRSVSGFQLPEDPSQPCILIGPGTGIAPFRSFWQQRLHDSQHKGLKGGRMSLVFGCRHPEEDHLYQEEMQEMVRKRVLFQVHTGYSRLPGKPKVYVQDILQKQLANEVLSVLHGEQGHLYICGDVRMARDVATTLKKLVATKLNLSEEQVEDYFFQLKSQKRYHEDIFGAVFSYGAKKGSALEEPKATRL
- MEASUREMENT PROTOCOL: Inhibition of radiolabeled arginine conversion to citrulline by isomeric form of Inducible nitric oxide synthase from mouse RAW 264.7 cells
# maps each entry to its IC50
Entry rule: numbers only, all in µM.

Some solved cases for reference:
Cc1ccc([N+](=O)[O-])c(NCCC[C@H](N)C(=O)O)c1    11
Cc1ccc([N+](=O)[O-])c(SCCC[C@H](N)C(=O)O)c1    4
Cc1ccc([N+](=O)[O-])c(NCCC[C@H](N)CO)c1    5
Cc1ccc([N+](=O)[O-])c(NCCCCN)c1    9
N=C(NCCC[C@H](N)C(=O)O)N[N+](=O)[O-] [NITROARGININE]    14

Please turn your attention to the following entry.
Please fill in: IC50 reported for Cc1ccc([N+](=O)[O-])c(OCCC[C@H](N)C(=O)O)c1 = 80

---

# maps each entry to its pIC50
- TARGET OF ASSAY: Nitric oxide synthase 1 (Rattus norvegicus)
- MEASUREMENT PROTOCOL: Inhibition of arginine to citrulline conversion by Neuronal nitric oxide synthase from rat brain
pIC50: −log10 of the molar value.

Please fill in: pIC50 reported for Cc1cccc(NCCC[C@H](N)C(=O)O)c1 = < 4.00

Please fill in: pIC50 reported for Cc1cccc(SCCC[C@H](N)C(=O)O)c1 = < 4.00

Please fill in: pIC50 reported for N[C@@H](CCCNc1cc(O)ccc1[N+](=O)[O-])C(=O)O = < 4.00
